B1: FADS1 (parent)
chain: LNFQIEHHLFPTMPRHNYHKVAPL

# Variants of: B1
# assay overview: protein stability index of a GFP-peptide fusion (GPS, HEK-293T) (PSI 1-6); higher = more stable;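 note: lentivirally expressed fusions sorted by FACS into six bins by GFP to DsRed ratio, PSI derived from sequencing read proportions per bin multiplied by bin number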
# condition description: c terminus: a fixed tail appended
attribute measured: protein stability index
Simply state the number, no unit and no words.

- residues: "LNFQIEHHLFPTMPRHNYHKVAPS [L24S]"
  protein stability index: 1.15

Task item: I'd like to know its protein stability index. The variant in question is LNFQIEHHLFPTMPRENYHKVAPL [H16E]
Reply: 2.52
